Tested on: MIAPaCa-2
test_details: Cytotoxicity assay (WST-8)
Assay type: cell-based
setup_conditions: Homo sapiens, MIA PaCa-2, 96 h incubation
parameter: IC50

molecule_smiles | recorded_measurement
CCOC(=O)/C=C/c1cc2cc(NS(=O)(=O)c3ccc(C)cc3)ccc2s1 | 39.5 µM
CCOC(=O)/C=C/c1cc2cc(NS(=O)(=O)c3ccc(C(C)(C)C)cc3)ccc2s1 | 45.5 µM
Cc1ccc(S(=O)(=O)Nc2ccc3sc(/C=C/C(=O)O)cc3c2)cc1 | > 100 µM
CCOC(=O)/C=C/c1cc2cc(NS(=O)(=O)c3c(C)cc(C)cc3C)ccc2s1 | 30.4 µM

Proceeding to the next compound to report its IC50.
# IC50 of `O=C(/C=C/c1cc2cc(NS(=O)(=O)c3ccccc3)ccc2s1)NO` = 1.21 µM
